Just for reference, patent US20160251438A1 is where these values come from.

study system: T1, recombinant soluble human GARP-TGFβ1 complex (human, UniProt Q14392 20-628; P01137 30-390)
T1 construct: co-expressed in HEK293E, purified by the Strep-Tag; TGFβ consists of LAP and mature TGFβ; also called shGARP-TGFβ; rhGARP-TGFβ
T1 sequence (Q14392 other isoform, or with tags, fused parts or gaps limits assumed, chain 1 of 2): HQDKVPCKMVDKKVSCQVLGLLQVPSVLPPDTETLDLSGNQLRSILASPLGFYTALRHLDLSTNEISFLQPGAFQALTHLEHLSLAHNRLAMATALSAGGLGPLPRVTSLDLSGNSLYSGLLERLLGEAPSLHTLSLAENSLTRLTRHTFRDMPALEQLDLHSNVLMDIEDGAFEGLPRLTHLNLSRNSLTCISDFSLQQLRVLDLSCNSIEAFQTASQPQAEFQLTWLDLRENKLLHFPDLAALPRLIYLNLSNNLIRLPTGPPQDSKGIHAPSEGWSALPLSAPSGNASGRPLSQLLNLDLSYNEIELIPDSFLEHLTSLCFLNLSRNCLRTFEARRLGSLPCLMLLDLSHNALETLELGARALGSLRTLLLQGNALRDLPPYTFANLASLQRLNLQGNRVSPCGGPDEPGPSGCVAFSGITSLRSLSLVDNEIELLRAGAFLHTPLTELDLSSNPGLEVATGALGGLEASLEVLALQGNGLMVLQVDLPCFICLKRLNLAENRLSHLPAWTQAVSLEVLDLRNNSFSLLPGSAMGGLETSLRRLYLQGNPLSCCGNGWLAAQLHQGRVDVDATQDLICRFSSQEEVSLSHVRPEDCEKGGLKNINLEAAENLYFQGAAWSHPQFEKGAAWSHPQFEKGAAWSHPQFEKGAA
T1 sequence (P01137 30-390 limits assumed, chain 2 of 2): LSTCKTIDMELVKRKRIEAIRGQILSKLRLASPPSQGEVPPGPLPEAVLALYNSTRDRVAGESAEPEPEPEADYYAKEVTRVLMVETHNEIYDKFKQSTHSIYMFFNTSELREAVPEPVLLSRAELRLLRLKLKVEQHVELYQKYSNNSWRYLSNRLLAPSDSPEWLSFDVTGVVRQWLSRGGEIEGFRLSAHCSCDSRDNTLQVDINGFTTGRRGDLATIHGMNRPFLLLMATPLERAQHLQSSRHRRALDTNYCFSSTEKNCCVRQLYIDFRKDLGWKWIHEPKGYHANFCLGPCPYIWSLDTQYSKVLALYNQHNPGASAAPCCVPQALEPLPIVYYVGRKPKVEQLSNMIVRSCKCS
method description: SPR (Biacore), hGARP-TGFβ1 immobilised
Measured Kd accompanies every entry in the list below.
Number in nM, nothing else.

[[record]]
binder = "LHG-10.6-D (antibody, human IgG1, V domains shown, also called LHG-10.6N297Q) VH: EVQLVQPGAELRNSGASVKVSCKASGYRFTSYYIDWVRQAPGQGLEWMGRIDPEDGGTKYAQKFQGRVTFTADTSTSTAYVELSSLRSEDTAVYYCARNEWETVVVGDLMYEYEYWGQGTQVTVSS VL: DIQMTQSPSSLSASLGDRVTITCQASQSISSYLAWYQQKPGQAPNILIYGASRLKTGVPSRFSGSGSGTSFTLTISGLEAEDAGTYYCQQYASVPVTFGQGTKVELK"
reported_measurement = 0.0216

[[record]]
binder = "LHG-10-D (antibody, human IgG1, V domains shown) VH: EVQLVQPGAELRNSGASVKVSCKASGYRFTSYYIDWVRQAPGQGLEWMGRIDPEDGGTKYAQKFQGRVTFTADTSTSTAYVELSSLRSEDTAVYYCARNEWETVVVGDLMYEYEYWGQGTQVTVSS VL: DIQMTQSPTSLSASLGDRVTITCQASQSISSYLAWYQQKPGQAPKLLIYGASRLQTGVPSRFSGSGSGTSFTLTISGLEAEDAGTYYCQQYDSLPVTFGQGTKVELK"
reported_measurement = 0.185

[[record]]
binder = "LHG-10.4 (antibody, human IgG1, V domains shown, VK-shuffled variant of LHG-10, human IgG1) VH: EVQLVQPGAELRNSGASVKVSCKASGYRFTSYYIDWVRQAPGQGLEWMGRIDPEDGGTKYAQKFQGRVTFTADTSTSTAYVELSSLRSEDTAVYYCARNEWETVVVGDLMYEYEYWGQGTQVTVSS VL: DIQMTQSPSSLSASLGDRVTITCQASQSISSYLAWYQQKPGQAPKLLIYGTSRLKTGVPSRFSGSGSGTSFTLTISGLEAEDAGTYYCQQYYSAPVTFGQGTKVELK"
reported_measurement = 0.0291

[[record]]
binder = "LHG-10 (antibody, human IgG1, V domains shown, llama-derived V regions in a full human IgG1) VH: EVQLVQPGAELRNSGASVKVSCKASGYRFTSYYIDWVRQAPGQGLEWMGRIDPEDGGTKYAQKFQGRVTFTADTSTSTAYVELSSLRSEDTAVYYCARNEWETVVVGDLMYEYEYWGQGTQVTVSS VL: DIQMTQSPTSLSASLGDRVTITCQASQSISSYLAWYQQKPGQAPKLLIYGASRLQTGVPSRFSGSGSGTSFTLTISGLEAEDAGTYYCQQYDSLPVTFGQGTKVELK"
reported_measurement = 0.131


# input Please look at this binder and report its Kd: LHG-10.5 (antibody, human IgG1, V domains shown, VK-shuffled variant of LHG-10, human IgG1) VH: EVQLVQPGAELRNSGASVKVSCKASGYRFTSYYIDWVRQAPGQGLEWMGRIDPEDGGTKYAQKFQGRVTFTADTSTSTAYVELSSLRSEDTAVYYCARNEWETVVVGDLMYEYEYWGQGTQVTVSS VL: DIQMTQSPSSLSPSLGDRVTITCQASQTISSFLAWYHQKPGQPPKLLIYRASIPQTGVPSRFSGSGSGTSFTLTIGGLEAEDAGTYYCQQYVSAPPTFGQGTKVELK
# output 0.0331
